Recorded values, source patent US20240228562A1.

- assay system: T1, Rat CTGF (Rattus norvegicus, UniProt Q9R1E9)
- T1 construct: purchased R&D Systems
- T1 sequence (Q9R1E9 25-347): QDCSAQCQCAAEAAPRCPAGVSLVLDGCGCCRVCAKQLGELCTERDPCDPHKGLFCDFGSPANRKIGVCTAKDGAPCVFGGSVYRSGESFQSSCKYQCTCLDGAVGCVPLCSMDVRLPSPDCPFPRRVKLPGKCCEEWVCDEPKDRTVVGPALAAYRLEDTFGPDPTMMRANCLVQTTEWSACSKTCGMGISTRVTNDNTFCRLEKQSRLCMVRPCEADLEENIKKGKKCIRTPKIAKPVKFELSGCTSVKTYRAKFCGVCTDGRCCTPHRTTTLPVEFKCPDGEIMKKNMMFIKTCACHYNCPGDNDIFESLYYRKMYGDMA
- protocol: SPR binding kinetics and affinity, rat CTGF
- condition description: 25° C., 1:1 binding model
property name: Rat CTGF kon (M⁻¹ s⁻¹)
Quick reminder: number only, in M⁻¹ s⁻¹, skip the unit.

molecule | display unit | reported
SEQ ID NO: 35: optimized CTGF-binding hNGAL lipocalin mutein (protein, lipocalin mutein) QDSTSDLIPAPPLSKVPLQQNFQDNQFQGKWYVVGWAGNVKLREDKQPLKMSATIYELKEDKSYDVTEVVFEQKKCHYIIKTFVPGSQPGEFTAGDIKSPPGYTSSLVRVVSTNYNQHAMVFFKKVSQNREFFWITLYGRTKELTSELKENFIRFSKSLGLPENHIVFPVPIDQCIDG | M⁻¹ s⁻¹ | 193000

# ---- query molecule ----
Look up Rat CTGF kon: SEQ ID NO: 10: optimized CTGF-binding hNGAL lipocalin mutein (protein, lipocalin mutein) QDSTSDLIPAPPLSKVPLQQNFQDNQFQGKWYVVGLAGNAILREDKQPAKMFATIYELKEDKSYDVTSVRFEAKSCSYTIKTFVPGSQPGEFTAGNIKSAPGQTSTLVRVVSTNYNQHAMVFWKSVAGTRESFNIALYGRTKELTSELKENFIRFSKSLGLPENHIVFPVPIDQCIDG
88800
